target: T1, human Mdm2 1-125 (human); test: fluorescence polarisation; competitive fluorescence anisotropy: unlabelled peptide titrated against 250 nM Mdm2 (1-125) with 50 nM FAM-labelled 12/1 peptide (FAM-…-NH2); PBS pH 7.4, 0.001% Tween-20; apparent Kd, geometric means; settings: both partners purified
T1 construct: Mdm2, human, residues 1-125; the stretch after the TEV site ENLYFQG of the fusion protein; source: E. coli BL21 (DE3) Rosetta T1R, purified (Ni-NTA, gel filtration)
T1 sequence (chain, as listed by the source): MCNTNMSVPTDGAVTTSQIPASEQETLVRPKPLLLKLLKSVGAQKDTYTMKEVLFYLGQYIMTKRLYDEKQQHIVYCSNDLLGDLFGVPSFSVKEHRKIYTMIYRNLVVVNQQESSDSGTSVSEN
Positions of bridges follow the written chain, without caps; N, C: chain ends. Non-standard residues stand in square brackets, D forms with d. Primed or numbered codes have the meaning given here. Lys(N3) = [N-]=[N+]=NCCCC[C@H](N)C(=O)O; R8 = C=CCCCCCC[C@@](C)(N)C(=O)O; S5 = C=CCCC[C@](C)(N)C(=O)O; Cba′ = not defined here; βAla = NCCC(=O)O
measurement type: pKd
Quick note: pKd values are minus log10 of concentrations in mol/L.

Solved cases (3 shown):
binder | pKd
Ac-[Lys(N3)][βAla]KTF[R8]EYWAQ[Cba′][S5]SAA-NH2 (staple 6-13; reading uncertain) [AZIDE-ATSP-7041 (L1K)] | 8.42
Ac-[Lys(N3)][βAla]LTF[R8]EYWAQ[Cba′][S5]KAA-NH2 (staple 6-13; reading uncertain) [AZIDE-ATSP-7041 (S12K)] | 7.40
Ac-[Lys(N3)][βAla]LAF[R8]EYWAQ[Cba′][S5]SAA-NH2 (staple 6-13; reading uncertain) [AZIDE-ATSP-7041 (T2A)] | 7.09

Then there is this binder:
Problem: Requested read-out: pKd. Entry: Ac-[Lys(N3)][βAla]LTA[R8]EYWAQ[Cba′][S5]SAA-NH2 (staple 6-13; reading uncertain) [AZIDE-ATSP-7041 (F3A)]
Solution: 4.88
